Values compiled from patent US5132429A.

target: α1-AG (α1-acid glycoprotein); assay: Binding constant of basic drug to α1-AG by displacement of compound 1 (fluorescence probe method, Klotz formula); details: 0.1M phosphoric acid buffer pH 7.4; 3×10^-6 M α1-AG; compound 1 as probe
attributeMeasured: log Kb (binding constant)
One number for each entry.

For every listed record, write down its log Kb (binding constant).
1. CC(CN1c2ccccc2Sc2ccccc21)N(C)C (stereo not drawn) [Promethazine]
2. CN(C)CCC=C1c2ccccc2CCc2ccccc21 [Amitriptyline]
3. CC(C)NCC(O)COc1cccc2[nH]ccc12 (stereo not drawn) [Pindolol]
4. CN(C)CCCN1c2ccccc2CCc2ccccc21 [Imipramine]
5. CC(CN(C)C)CN1c2ccccc2CCc2ccccc21 (stereo not drawn) [Trimipramine]
6. COc1ccc([C@@H]2Sc3ccccc3N(CCN(C)C)C(=O)[C@@H]2OC(C)=O)cc1 [Diltiazem]
7. CNCCCN1c2ccccc2CCc2ccccc21 [Desipramine]

**A:**
4.94
5.58
5.33
5.61
5.54
5.40
4.86

# return log Kb (binding constant) for each item in the list
1. COC(=O)C1=C(C)NC(C)=C(C(=O)OCCN(C)Cc2ccccc2)C1c1cccc([N+](=O)[O-])c1 (stereo not drawn) [Nicardipine]
2. COc1ccc2c(c1)N(C[C@H](C)CN(C)C)c1ccccc1S2 [Levomepromazine]

**A:**
6.78
6.01

* * *

system: Human Serum Albumine; assay: Fluorescence (excitation and fluorescence wavelength) with human serum albumin; type: physicochemical
For each of the compounds below, state its Fluorescence Wavelength.

Quick request: Fluorescence Wavelength for each listed item, please.
1. CCN(CC)c1ccc(-n2nc3cc(N)cc(Cl)c3n2)cc1
2. Nc1cc(Cl)c2nn(-c3ccc(N4CCOCC4)cc3)nc2c1
3. CCOC(=O)c1cc(N)cc2nn(-c3ccc(N(CC)CC)cc3)nc12

**A:**
505 nm
465 nm
520 nm

The following compounds each have a reported value; give each one's Fluorescence Wavelength.
1. Nc1cc(Cl)c2nn(-c3ccc(Nc4ccccc4)cc3)nc2c1
2. CNc1ccc(-n2nc3cc(N)cc(Cl)c3n2)cc1

**A:**
485 nm
480 nm

* * *

system: Human Serum Albumine; assay: Fluorescence (excitation and fluorescence wavelength) with human serum albumin; assay type: physicochemical
Please respond with y when measured Excitation Wavelength is strictly beneath 400 nm, and with n in all other cases.

CNc1ccc(-n2nc3cc(N)cc(Cl)c3n2)cc1 [Compound 2] : y
CCOC(=O)c1cc(N)cc2nn(-c3ccc(N(CC)CC)cc3)nc12 [Compound 5] : n
Nc1cc(Cl)c2nn(-c3ccc(N4CCOCC4)cc3)nc2c1 [Compound 4] : y

**Q:** Strictly below 400 nm in Excitation Wavelength? CCN(CC)c1ccc(-n2nc3cc(N)cc(Cl)c3n2)cc1 [Compound 1]
**A:** n

* * *

Exercise: state measured Fluorescence Wavelength for each of the compounds provided.
test system: α1-AG; experiment: Fluorescence (excitation and fluorescence wavelength) with α1-AG; format: physicochemical
Answers are plain numbers, in nm.

Dear colleague, could you please provide Fluorescence Wavelength for the compounds listed below?
1. Nc1cc(Cl)c2nn(-c3ccc(Nc4ccccc4)cc3)nc2c1 [Compound 3]
2. Nc1cc(Cl)c2nn(-c3ccc(N4CCOCC4)cc3)nc2c1 [Compound 4]
3. CCN(CC)c1ccc(-n2nc3cc(N)cc(Cl)c3n2)cc1 [Compound 1]

**A:**
[505, 502, 508]

List Fluorescence Wavelength for every entry below, keeping the order given.
1. CCOC(=O)c1cc(N)cc2nn(-c3ccc(N(CC)CC)cc3)nc12 [Compound 5]
2. CNc1ccc(-n2nc3cc(N)cc(Cl)c3n2)cc1 [Compound 2]

**A:**
1: 567; 2: 482
